target: Estrogen receptor beta (Homo sapiens, UniProt Q92731); assay: Binding affinity to human ERbeta ligand binding domain expressed in Escherichia coli BL21(DE3) cells assessed as recruitment of fluorescently labeled nuclear coactivator Scr1 after 1 hr by fluorescence polarization assay
Sequence (Q92731 whole entry, the tested form may be a part): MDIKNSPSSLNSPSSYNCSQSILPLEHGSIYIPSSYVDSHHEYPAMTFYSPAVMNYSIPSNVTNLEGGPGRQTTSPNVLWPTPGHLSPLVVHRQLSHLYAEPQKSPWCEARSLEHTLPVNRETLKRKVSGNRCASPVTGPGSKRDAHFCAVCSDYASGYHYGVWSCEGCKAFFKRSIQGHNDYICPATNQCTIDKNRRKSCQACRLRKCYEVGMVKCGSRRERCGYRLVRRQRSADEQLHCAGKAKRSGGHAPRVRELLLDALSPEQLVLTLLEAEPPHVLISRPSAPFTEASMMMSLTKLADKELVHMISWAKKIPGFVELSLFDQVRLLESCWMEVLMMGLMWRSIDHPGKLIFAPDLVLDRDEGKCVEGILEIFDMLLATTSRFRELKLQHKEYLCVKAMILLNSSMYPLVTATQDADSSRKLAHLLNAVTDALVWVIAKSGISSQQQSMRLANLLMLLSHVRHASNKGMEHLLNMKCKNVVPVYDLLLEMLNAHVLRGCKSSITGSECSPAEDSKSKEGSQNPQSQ
property_measured: pEC50
The quantity pEC50 is defined as the negative base-10 logarithm of the molar concentration.

QUERY: Give a short answer stating reported pEC50 for `O=C(N1CCc2cc(O)ccc2C1)C(F)(F)F` .
RESULT: 5.34
